Molecular target: Yer184c (UniProt P39961)
Sequence: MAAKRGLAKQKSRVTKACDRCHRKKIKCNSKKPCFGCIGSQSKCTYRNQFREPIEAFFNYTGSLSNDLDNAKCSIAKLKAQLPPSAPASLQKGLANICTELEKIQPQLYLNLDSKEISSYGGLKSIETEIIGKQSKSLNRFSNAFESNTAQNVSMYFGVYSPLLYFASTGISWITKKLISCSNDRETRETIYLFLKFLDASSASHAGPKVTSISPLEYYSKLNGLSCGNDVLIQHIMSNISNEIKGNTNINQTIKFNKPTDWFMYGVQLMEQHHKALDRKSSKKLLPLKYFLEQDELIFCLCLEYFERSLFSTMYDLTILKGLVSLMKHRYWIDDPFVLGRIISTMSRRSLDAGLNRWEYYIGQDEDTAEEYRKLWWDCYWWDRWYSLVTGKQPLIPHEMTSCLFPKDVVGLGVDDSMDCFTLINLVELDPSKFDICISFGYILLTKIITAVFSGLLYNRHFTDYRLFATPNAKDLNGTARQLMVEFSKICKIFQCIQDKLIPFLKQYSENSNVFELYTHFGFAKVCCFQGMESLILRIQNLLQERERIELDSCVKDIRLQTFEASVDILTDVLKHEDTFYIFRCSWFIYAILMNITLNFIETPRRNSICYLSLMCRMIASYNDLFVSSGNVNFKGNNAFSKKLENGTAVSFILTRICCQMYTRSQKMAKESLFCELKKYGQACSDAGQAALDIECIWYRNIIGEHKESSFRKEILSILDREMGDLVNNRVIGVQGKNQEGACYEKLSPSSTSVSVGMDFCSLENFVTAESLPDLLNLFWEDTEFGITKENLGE
Test: PBM E-score (8-mer binding enrichment) (E-score (-0.5 to 0.5)); higher = stronger / more preferred TF binding
Conditions: protein concentration: 100 nM; construct: GST-full length
Over roughly 33,000 sequences, “E-score (-0.5 to 0.5)” has its median near -0.016; the highest 2% begin near 0.3. The entries come from a sample that favours the highest values as a whole.
Use 1 when the recorded PBM E-score is no lower than 0.3; use 0 when it is lower.

Task: Determine whether this sequence has PBM E-score no lower than 0.3: TCGGGAAA
Output: 1

Task: Determine whether this sequence has PBM E-score no lower than 0.3: CCGGCGAA
Output: 1

Task: Determine whether this sequence has PBM E-score no lower than 0.3: CCGGCGGA
Output: 1

Task: Determine whether this sequence has PBM E-score no lower than 0.3: CGGGGAAA
Output: 0

Task: Determine whether this sequence has PBM E-score no lower than 0.3: ATTCGCCG
Output: 1

Task: Determine whether this sequence has PBM E-score no lower than 0.3: AGACGGAA
Output: 0

Every entry's value here was drawn from the supplement of paper PMC3334620.
